What MIC was measured for each of the following?
# Tested on: Candida albicans
# Run description: Antifungal activity against Candida albicans Y0109 after 24 hrs by serial dilution method
# Assay type: functional
# Measurement setup: Y0109, 24 h
Give bare numbers, in µg/mL.

Illustrative cases are given below, each with its answer.
| Compound | Recorded number |
| --- | --- |
| C[C@@H](n1cnc2cc(Cl)ccc2c1=O)[C@](O)(Cn1cncn1)c1ccc(F)cc1F [ALBACONAZOLE] | 0.0156 |
| C[C@@H](N1Cc2cc(-c3cccc(F)c3)sc2C1=O)[C@](O)(Cn1cncn1)c1ccc(F)cc1F | 0.0625 |
| C[C@@H](N1Cc2cc(-c3ccc(C#N)cc3)sc2C1=O)[C@](O)(Cn1cncn1)c1ccc(F)cc1F | 0.0156 |
| OC(Cn1cncn1)(Cn1cncn1)c1ccc(F)cc1F [FLUCONAZOLE] | 0.25 |
| C[C@@H](N1CCn2nc(-c3ccc(C#N)nc3)nc2C1)[C@](O)(Cn1cncn1)c1ccc(F)cc1F | 0.0156 |

Dear colleague, could you please provide MIC for the compounds listed below?
1. C[C@@H](N1Cc2sc(-c3ccc(C#N)nc3)cc2C1=O)[C@](O)(Cn1cncn1)c1ccc(F)cc1F
2. C[C@@H](c1ncncc1F)[C@](O)(Cn1cncn1)c1ccc(F)cc1F [VORICONAZOLE]
3. C[C@@H](N1Cc2sc(Br)cc2C1=O)[C@](O)(Cn1cncn1)c1ccc(F)cc1F
4. C[C@@H](N1Cc2cc(-c3ccccc3)sc2C1=O)[C@](O)(Cn1cncn1)c1ccc(F)cc1F
5. C[C@@H](N1Cc2sc(-c3cncc(F)c3)cc2C1=O)[C@](O)(Cn1cncn1)c1ccc(F)cc1F
6. C[C@@H](N1CCc2nc(-c3cncnc3)sc2C1)[C@](O)(Cn1cncn1)c1ccc(F)cc1F

Given back:
0.0156
0.0156
0.0625
0.0312
0.0156
0.0625

Below are 2 compounds. Give each one its MIC.
1. COc1ncc(-c2cc3c(s2)CN([C@H](C)[C@](O)(Cn2cncn2)c2ccc(F)cc2F)C3=O)cn1
2. C[C@@H](N1Cc2cc(-c3ccc(F)nc3)sc2C1=O)[C@](O)(Cn1cncn1)c1ccc(F)cc1F

Given back:
1. 0.0156
2. 0.25
